Values from paper PMC8026479

Experiment: Study G1T28-03 Part 1 plasma PK (with topotecan)
Format: in vivo, human
Conditions: human, plasma, ES-SCLC + topotecan, 240 mg/m2, Cycle 1 Day 1 (n = 14), geometric mean
endpoint: clearance (mL/min)
Respond with the bare value in mL/min.

Inquiry: For CN1CCN(c2ccc(Nc3ncc4cc5n(c4n3)C3(CCCCC3)CNC5=O)nc2)CC1 , what is its reported clearance?
Reply text: 2420

====

Test: Study G1T28-03 Part 1 plasma PK (with topotecan)
Type: in vivo, human
Conditions: human, plasma, 240 mg/m2, ES-SCLC + topotecan, 240 mg/m2, Cycle 1 Day 4 (n = 15), geometric mean; read-out: Vz
From the text: G1T28-03 (NCT02514447) was a multicentre Phase Ib/IIa study in patients with previously treated ES-SCLC [14]. […] Part 1 was a Phase Ib, open-label, dose-finding portion. Part 2 was a Phase IIa, randomized, double-blind, placebo-controlled portion. […] In Part 1 of the study, blood samples for PK analysis were collected at prespecified time points on Cycle 1 Day 1 and Cycle 1 Day 4 for all patients.
endpoint: Vd (L)
Respond with the bare value in L.

Inquiry: For CN1CCN(c2ccc(Nc3ncc4cc5n(c4n3)C3(CCCCC3)CNC5=O)nc2)CC1 , what is its reported Vd?
Reply text: 1730
